targetDesc: human STING protein (Homo sapiens (Human), UniProt Q86WV6)
Sequence (Q86WV6 whole entry): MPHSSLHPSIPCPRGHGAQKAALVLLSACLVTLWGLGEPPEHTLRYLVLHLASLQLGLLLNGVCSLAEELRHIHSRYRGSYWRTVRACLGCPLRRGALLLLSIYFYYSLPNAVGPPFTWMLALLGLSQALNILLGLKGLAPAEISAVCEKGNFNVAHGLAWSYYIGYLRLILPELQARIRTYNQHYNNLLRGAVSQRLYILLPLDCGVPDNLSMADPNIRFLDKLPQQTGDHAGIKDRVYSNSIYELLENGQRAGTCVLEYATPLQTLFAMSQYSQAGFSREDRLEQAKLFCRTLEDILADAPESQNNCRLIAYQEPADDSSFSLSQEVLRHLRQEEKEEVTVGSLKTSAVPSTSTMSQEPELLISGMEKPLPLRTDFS
testMethodNotes: WT STING binding assay (HTRF, competition with labeled 2′3′cGAMP)
experimentalContext: recombinant 6×His-tagged human STING, three hours at room temperature
measuredQuantity: IC50

# molecularString, IC50
rows = [
    ("O=C(Nc1cc(OCCCCOc2cc(NC(=O)c3ccc(-n4ccnc4)nn3)c(C(=O)O)cc2Cl)c(Cl)cc1C(=O)O)c1ccc(-n2ccnc2)nn1", "100 to 1000 nM"),
]

IC50 for O=C(Nc1cc(OCCCOc2cc(NC(=O)c3ccc(-n4ccnc4)nn3)c(C(=O)O)cc2F)c(F)cc1C(=O)O)c1ccc(N2CCOCC2)nn1 ?
100 to 1000 nM

IC50 for O=C(Nc1cc(OCCOc2cc(NC(=O)c3ccc(-n4ccnc4)nn3)c(C(=O)O)cc2F)c(F)cc1C(=O)O)c1ccc(-n2ccnc2)nn1 ?
10 to 100 nM

###

targetDesc: UniProt:Q86WV6
testMethodNotes: WT STING binding assay (HTRF, competition with labeled 2′3′cGAMP)
experimentalContext: recombinant 6×His-tagged human STING, three hours at room temperature
pIC50: −log10 of the molar value.
measuredQuantity: pIC50

Form entry - test system: UniProt:Q86WV6; read-out: pIC50; compound: O=C(Nc1cc(CS(=O)(=O)Cc2cc(NC(=O)c3ccc(-n4ccnc4)nn3)c(C(=O)O)cc2F)c(F)cc1C(=O)O)c1ccc(-n2ccnc2)nn1
7.00 to 8.00

Form entry - test system: UniProt:Q86WV6; read-out: pIC50; compound: O=C(Nc1cc(CCCCc2cc(NC(=O)c3ccc(-n4ccnc4)nn3)c(C(=O)O)cc2F)c(F)cc1C(=O)O)c1ccc(-n2ccnc2)nn1
7.00 to 8.00

Form entry - test system: UniProt:Q86WV6; read-out: pIC50; compound: O=C(Nc1cc(CCCc2cc(NC(=O)c3ccc4cnnn4n3)c(C(=O)O)cc2F)c(F)cc1C(=O)O)c1ccc(-n2ccnc2)nn1
7.00 to 8.00

Form entry - test system: UniProt:Q86WV6; read-out: pIC50; compound: CCOC(=O)CCC(=O)c1cc2cc(OCCc3cc(NC(=O)c4ccc5nnnn5n4)c(C(=O)O)cc3F)c(OC)cc2s1
6.00 to 7.00

Form entry - test system: UniProt:Q86WV6; read-out: pIC50; compound: O=C(Nc1cc(OCCCCOc2ccc(C(=O)O)c(NC(=O)c3ccc4nnnn4n3)c2)ccc1C(=O)O)c1ccc(-n2ccnc2)nn1
6.00 to 7.00

Form entry - test system: UniProt:Q86WV6; read-out: pIC50; compound: O=C(Nc1cc(OCCCCOc2cc(NC(=O)c3ccc4nnnn4n3)c(C(=O)O)cc2F)ccc1C(=O)O)c1ccc(-n2ccnc2)nn1
7.00 to 8.00

Form entry - test system: UniProt:Q86WV6; read-out: pIC50; compound: O=C(Nc1cc(OCCCCOc2cc(NC(=O)c3ccc(-n4ccnc4)nn3)c(C(=O)O)cc2Cl)ccc1C(=O)O)c1ccc(-n2ccnc2)nn1
6.00 to 7.00

Form entry - test system: UniProt:Q86WV6; read-out: pIC50; compound: COc1cc(C(=O)O)c(NC(=O)c2ccc(-n3ccnc3)nn2)cc1OCCc1cc(C(=O)O)c(NC(=O)c2ccc3nnnn3n2)cc1C#N
7.00 to 8.00

Form entry - test system: UniProt:Q86WV6; read-out: pIC50; compound: COc1cc(C(=O)O)c(NC(=O)c2ccc3nnnn3n2)cc1OCCc1ccc(C(=O)O)c(NC(=O)c2ccc(-n3ccnc3)nn2)c1
6.00 to 7.00

Form entry - test system: UniProt:Q86WV6; read-out: pIC50; compound: O=C(Nc1cc(OCCc2cc(NC(=O)c3ccc(-n4ccnc4)nn3)c(C(=O)O)cc2Cl)c(F)cc1C(=O)O)c1ccc(-n2ccnc2)nn1
7.00 to 8.00

Form entry - test system: UniProt:Q86WV6; read-out: pIC50; compound: COc1cc(C(=O)O)c(NC(=O)c2ccc3nnnn3n2)cc1CCCc1cc(NC(=O)c2ccc(-n3ccnc3)nn2)c(C(=O)O)cc1F
7.00 to 8.00

Form entry - test system: UniProt:Q86WV6; read-out: pIC50; compound: COc1cc(NC(=O)c2ccc3nnnn3n2)c(C(=O)O)cc1CCOc1cc(NC(=O)c2ccc(-n3ccnc3)nn2)c(C(=O)O)cc1F
6.00 to 7.00

###

pIC50 listing for selected compounds.
targetDesc: human STING protein (Homo sapiens (Human))
testMethodNotes: WT STING binding assay (HTRF, competition with labeled 2′3′cGAMP)
experimentalContext: recombinant 6×His-tagged human STING, three hours at room temperature
pIC50: −log10 of the molar value.

Worked set:
# compound, pIC50
records = [
    ("COc1cc(C(=O)O)c(NC(=O)c2ccc(-n3ccnc3)nn2)cc1OCCc1cc(NC(=O)c2ccc3nnnn3n2)c(C(=O)O)cc1F [Compound 110]", "6.00 to 7.00"),
    ("O=C(Nc1cc(OCCCOc2cc(NC(=O)c3ccc(-n4ccnc4)nn3)c(C(=O)O)cc2F)ccc1C(=O)O)c1ccc(-n2ccnc2)nn1 [Compound 203]", "7.00 to 8.00"),
]

pIC50 for O=C(Nc1cc(OCCCCOc2ccc(C(=O)O)c(NC(=O)c3ccc4nnnn4n3)c2)c(F)cc1C(=O)O)c1ccc(-n2ccnc2)nn1 [Compound 57] ?
7.00 to 8.00

pIC50 for O=C(Nc1ccc(CCCc2cc(NC(=O)c3ccc(-n4ccnc4)nn3)c(C(=O)O)cc2F)cc1C(=O)O)c1ccc(-n2ccnc2)nn1 [Compound 71] ?
7.00 to 8.00

pIC50 for COc1cc(NC(=O)c2ccc3nnnn3n2)c(C(=O)O)cc1OCCc1cc(NC(=O)c2ccc(-n3ccnc3)nn2)c(C(=O)O)cc1F [Compound 147] ?
6.00 to 7.00

pIC50 for N#Cc1nnn2nc(C(=O)Nc3cc(CCOc4cc(NC(=O)c5ccc(-n6ccnc6)nn5)c(C(=O)O)cc4F)c(F)cc3C(=O)O)ccc12 [Compound 136] ?
6.00 to 7.00

pIC50 for COc1cc(C(=O)O)c(NC(=O)c2ccc(-n3ccnc3)nn2)cc1OCCc1cc(NC(=O)c2ccc3nnnn3n2)c(C(=O)O)cc1Cl [Compound 109] ?
6.00 to 7.00

###

pIC50 listing for selected molecules.
targetDesc: UniProtKB Q86WV6
testMethodNotes: WT STING binding assay (HTRF, competition with labeled 2′3′cGAMP)
experimentalContext: recombinant 6×His-tagged human STING, three hours at room temperature
pIC50: −log10 of the molar value.

Worked set:
# molecularString, pIC50
records = [
    ("Nc1cc(C(=O)Nc2cc(OCCc3cc(NC(=O)c4ccc(-n5ccnc5)nn4)c(C(=O)O)cc3F)c(F)cc2C(=O)O)nn2nnnc12", "7.00 to 8.00"),
    ("O=C(Nc1cc(CCc2cc(NC(=O)c3ccc(-n4ccnc4)nn3)c(C(=O)O)cc2F)c(F)cc1C(=O)O)c1ccc(-n2ccnc2)nn1", "7.00 to 8.00"),
    ("O=C(Nc1cc(CCCc2cnc(C(=O)O)c(NC(=O)c3ccc(-n4ccnc4)nn3)c2)c(F)cc1C(=O)O)c1ccc(-n2ccnc2)nn1", "7.00 to 8.00"),
    ("O=C(Nc1cc(F)c(CCOc2cc(C(=O)O)c(NC(=O)c3ccc(-n4ccnc4)nn3)cc2F)cc1C(=O)O)c1ccc(-n2ccnc2)nn1", "6.00 to 7.00"),
    ("COC(=O)c1cc(F)c(CCOc2cc(NC(=O)c3ccc(-n4ccnc4)nn3)c(C(=O)O)cc2F)cc1NC(=O)c1ccc(-n2ccnc2)nn1", "6.00 to 7.00"),
    ("O=C(Nc1cc(CCOc2cc(NC(=O)c3ccc4nnnn4n3)c(C(=O)O)cc2F)c(F)cc1C(=O)O)c1ccc(-n2ccnc2)nn1", "7.00 to 8.00"),
]

Form entry - test system: UniProtKB Q86WV6; read-out: pIC50; molecule: O=C(Nc1cc(OCCCCOc2cc(NC(=O)c3ccc4nnnn4n3)c(C(=O)O)cc2F)c(F)cc1C(=O)O)c1ccc2nnnn2n1
6.00 to 7.00

Form entry - test system: UniProtKB Q86WV6; read-out: pIC50; molecule: COc1cc(NC(=O)c2ccc(-n3ccnc3)nn2)c(C(=O)O)cc1CCCc1cc(NC(=O)c2ccc3nnnn3n2)c(C(=O)O)cc1F
6.00 to 7.00

Form entry - test system: UniProtKB Q86WV6; read-out: pIC50; molecule: O=C(Nc1cc(CCOc2cc(NC(=O)c3ccc(-n4ccnc4)nn3)c(C(=O)O)cc2F)c(F)cc1C(=O)O)c1ccc(-n2ccnc2)nn1
7.00 to 8.00

###

targetDesc: human STING protein (Homo sapiens (Human), UniProt Q86WV6)
testMethodNotes: WT STING binding assay (HTRF, competition with labeled 2′3′cGAMP)
experimentalContext: recombinant 6×His-tagged human STING, three hours at room temperature
pIC50: −log10 of the molar value.
pIC50 listing for selected molecules.

pIC50 for CC(=O)Nc1cc(CCCc2cc(NC(=O)c3ccc(-n4ccnc4)nn3)c(C(=O)O)cc2F)ccc1C(=O)O [Compound 73] ?
6.00 to 7.00

pIC50 for O=C(Nc1cc(CCCc2cc(NC(=O)c3ccc4nnnn4n3)c(C(=O)O)cc2F)ccc1C(=O)O)c1ccc(-n2ccnc2)nn1 [Compound 89] ?
7.00 to 8.00

pIC50 for O=c1oc(-c2ccc(-n3ccnc3)nn2)nc2cc(OCCCCOc3cc4nc(-c5ccc(-n6ccnc6)nn5)oc(=O)c4cc3F)ccc12 [Compound 46] ?
6.00 to 7.00
